Quick list: IC50 per entry.
MEASURED TARGET: T1, human OX40 extracellular domain fused to the Fc portion of human IgG1 (hOX40:hFc) (human)
T1 construct: Made in Tn5 insect cells; also called OX40-hIgG1; human OX40:hIgG1 fusion protein
T1 sequence (chain, as listed by the source limits assumed): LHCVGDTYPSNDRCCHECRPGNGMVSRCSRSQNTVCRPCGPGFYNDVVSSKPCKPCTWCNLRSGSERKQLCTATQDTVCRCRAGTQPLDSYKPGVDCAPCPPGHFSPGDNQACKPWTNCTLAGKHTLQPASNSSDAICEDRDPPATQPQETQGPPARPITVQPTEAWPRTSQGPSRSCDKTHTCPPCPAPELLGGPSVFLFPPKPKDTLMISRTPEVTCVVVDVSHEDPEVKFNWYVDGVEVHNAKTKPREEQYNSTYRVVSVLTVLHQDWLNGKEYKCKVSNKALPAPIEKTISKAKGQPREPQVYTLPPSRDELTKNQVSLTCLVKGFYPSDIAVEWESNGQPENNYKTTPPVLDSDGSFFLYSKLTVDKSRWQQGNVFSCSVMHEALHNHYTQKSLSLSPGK
EXPERIMENT: ELISA, blocking of OX40L-FLAG binding to coated hOX40:hFc
MEASUREMENT NAME: IC50 (µg/mL)

[[record]]
binder = "112F32 human anti-human OX40 monoclonal antibody (hybridoma ATCC No. PTA-7217) (antibody, V domains shown) VH: GVQLVESGGGLVQPGGSLRLSCAASGFTFSSYSMNWVRQAPGKGLEWVSYISSSSSTIYYADSVKGRFTISRDNAKNSLYLQMNSLRDEDTAVYYCARGVYHNGWSFFDYWGQGTLLTVSS VL: DIQMTQSPSSLSASVGNRVTITCRASQDISSWLAWYQQKPEKAPKSLIYAASSLQSGVPSRFSGSGSGTDFTLTISSLQPEDFATYYCQQYNSYPLTFGQGTRLEIKR"
measurement_name = "IC50"
reading = 0.65

[[record]]
binder = "112Y55 human anti-human OX40 monoclonal antibody (hybridoma ATCC No. PTA-7220) (antibody, V domains shown) VH: QITLKESGPTLVKPTQTLTLSCTFSGFSLSTSGVGVGWIRQPPGKALEWLALIHWDDAERYSPSLKSRLTITKDTSKNQVVLTMTNMDLVDTATYYCAHTRGAFDIWGQGTMVTVSS VL: EIVLTQSPGTLSLSPGERAILSCRASQSVSSSFLAWYQQKPGQAPRLLIYGAFSRATGIPDRFSGSGSGTDFTLTISRLEPEDFAVYYCQQYDSSRTFGQGTKVEIK"
measurement_name = "IC50"
reading = 0.073

[[record]]
binder = "112Y131 human anti-human OX40 monoclonal antibody (hybridoma ATCC No. PTA-7218) (antibody, V domains shown) VH: QITLKESGPTLVKPTQTLTLTCTFSGFSLSTSGVGVGWIRQPPGKALEWLALIYWDDHSPYSPSLKSRLTITKDTSKNQVVLTMTNMDPVDTATYYCARTRGAFDIWGQGTMVTVSS VL: EIVLTQSPATLSLSPGERATLSCRASQGVSSYLAWYQQKPGQAPRLLIYDASNRATGIPARFSGSGPGTDFTLTISSLEPEDFAVYYCQQRSNWHPTFGQGTKVEIK"
measurement_name = "IC50"
reading = 0.069

[[record]]
binder = "112Z5 human anti-human OX40 monoclonal antibody (hybridoma ATCC No. PTA-7216) (antibody, V domains shown) VH: VVSTQSTGGGLVQPGRSLRLSCAASGFTLDDYGMHWVRQAPGKGLEWVSGISWNSDSIGYVDSVKGRFTISRDNAKNSLYLQMNSLRVEDTALYYCVKDISGWYSFDYWGQGTLVTVSS VL: EIVLTQSPATLSLSPGERATLSCRASQSVSSYLAWYQQKPGQAPRLLIYDASNRATGIPARFSGSGSGTDFTLTISSLEPEDFAVYYCQQRSNWPITFGQGTRLEIK"
measurement_name = "IC50"
reading = 0.081

